Species on record: Homo sapiens
protocol_notes: Selectivity ratio of IC50 for human recombinant FAAH to IC50 for human recombinant MAGL by liquid scintillation counting
reported_property: Ratio IC50

Example cases with answers are listed next.
[
  {
    "compound_string": "O=c1c2ccccc2sn1Cc1ccc(-c2ccccc2)cc1",
    "Ratio IC50": 73
  },
  {
    "compound_string": "CCCCCCCCN1SCCC1=O",
    "Ratio IC50": 17.3
  }
]

1: CCCCCCCCOc1noc2ccccc12
2: CCCCCCCCn1oc2ccccc2c1=O
Ask | Could you determine which record has the numerically smaller Ratio IC50? Candidates: 1 and 2 Please reply using the label of the selected record.
Reply | 2
(2: 0.16, 1: 0.47)

----------
measured_on: Fatty-acid amide hydrolase 1 (Homo sapiens)
protocol_notes: Inhibition of human recombinant FAAH assessed as conversion of [3H]AEA to [3H]ethanolamine after 10 mins by liquid scintillation counting
reported_property: IC50 (µM)

Example cases with answers are listed next.
[
  {
    "compound_string": "CCCCCCCCOc1noc2ccccc12",
    "numeric_value": 31.6
  },
  {
    "compound_string": "CCCCCCCCn1c(=O)oc2ccccc21",
    "numeric_value": 129
  },
  {
    "compound_string": "O=c1c2ccccc2sn1Cc1ccc(-c2ccccc2)cc1",
    "numeric_value": 30
  },
  {
    "compound_string": "CCCCCCCCn1oc2ccccc2c1=O",
    "numeric_value": 44.7
  }
]

A: CCCCCCCCn1sc2ccccc2c1=O
B: CCCCCCCCn1c(=O)sc2ccccc21
Ask | Of the two listed items, which has the higher IC50? First: A Second: B Please reply using the label of the selected record.
Reply | B

----------
measured_on: Monoglyceride lipase (Homo sapiens) (UniProt Q99685)
Sequence (Q99685 whole entry): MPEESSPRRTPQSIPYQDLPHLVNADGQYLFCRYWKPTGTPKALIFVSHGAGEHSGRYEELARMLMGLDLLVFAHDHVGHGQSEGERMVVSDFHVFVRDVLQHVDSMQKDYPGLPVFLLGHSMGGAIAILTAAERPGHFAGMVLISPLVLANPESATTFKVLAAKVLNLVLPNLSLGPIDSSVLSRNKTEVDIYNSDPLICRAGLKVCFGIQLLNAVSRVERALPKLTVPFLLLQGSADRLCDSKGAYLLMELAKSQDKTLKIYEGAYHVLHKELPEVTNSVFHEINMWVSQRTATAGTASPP
protocol_notes: Inhibition of human recombinant MAGL assessed as [3H]oleoylglycerol hydrolysis at 1 mM after 10 mins by liquid scintillation counting
Calls of active or inactive are those of the source. The calls are words filed in the database; no cut-off is given here.
reported_property: inhibition

Example cases with answers are listed next.
[
  {
    "compound_string": "CCCCCCCCN1C(=O)c2ccccc2C1=O",
    "measured_on": "Monoglyceride lipase (Homo sapiens) (UniProt Q99685)",
    "inhibition": "inactive"
  },
  {
    "compound_string": "CCCCCCCCn1c(=O)sc2ccccc21",
    "measured_on": "Monoglyceride lipase (Homo sapiens) (UniProt Q99685)",
    "inhibition": "72%"
  },
  {
    "compound_string": "CCCCCCCCn1c(=O)oc2ccccc21",
    "measured_on": "Monoglyceride lipase (Homo sapiens) (UniProt Q99685)",
    "inhibition": "26%"
  },
  {
    "compound_string": "CCCCCCCCOc1nsc2ccccc12",
    "measured_on": "Monoglyceride lipase (Homo sapiens) (UniProt Q99685)",
    "inhibition": "55%"
  }
]

Measured inhibition, c1ccc(-c2ccc(COc3nsc4ccccc34)cc2)cc1 : inactive

Measured inhibition, CCCCCCCCN1Cc2ccccc2C1=O : inactive

----------
measured_on: Monoglyceride lipase (Rattus norvegicus, UniProt Q8R431)
Sequence (Q8R431 whole entry): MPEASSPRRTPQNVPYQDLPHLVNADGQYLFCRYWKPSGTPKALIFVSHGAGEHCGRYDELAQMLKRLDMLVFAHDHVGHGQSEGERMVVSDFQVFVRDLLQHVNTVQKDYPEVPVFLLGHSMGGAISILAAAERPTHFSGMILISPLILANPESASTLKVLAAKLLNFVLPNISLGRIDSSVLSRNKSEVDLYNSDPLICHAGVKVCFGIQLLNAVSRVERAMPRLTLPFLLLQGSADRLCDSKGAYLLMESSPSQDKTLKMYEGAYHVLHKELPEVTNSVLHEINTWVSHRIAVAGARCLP
protocol_notes: Inhibition of rat recombinant N-terminal his-tagged MAGL expressed in Escherichia coli DH5alpha assessed as 2-oleoylglycerol hydrolysis after 10 mins by LC/MS analysis
reported_property: pIC50
pIC50 here: minus log base 10 of the concentration, concentration in moles per litre.

Measured pIC50, CCCCCCCCn1sc2ccccc2c1=O : 7.23

----------
measured_on: Fatty-acid amide hydrolase 1 (Homo sapiens) (UniProt O00519)
Sequence (O00519 whole entry): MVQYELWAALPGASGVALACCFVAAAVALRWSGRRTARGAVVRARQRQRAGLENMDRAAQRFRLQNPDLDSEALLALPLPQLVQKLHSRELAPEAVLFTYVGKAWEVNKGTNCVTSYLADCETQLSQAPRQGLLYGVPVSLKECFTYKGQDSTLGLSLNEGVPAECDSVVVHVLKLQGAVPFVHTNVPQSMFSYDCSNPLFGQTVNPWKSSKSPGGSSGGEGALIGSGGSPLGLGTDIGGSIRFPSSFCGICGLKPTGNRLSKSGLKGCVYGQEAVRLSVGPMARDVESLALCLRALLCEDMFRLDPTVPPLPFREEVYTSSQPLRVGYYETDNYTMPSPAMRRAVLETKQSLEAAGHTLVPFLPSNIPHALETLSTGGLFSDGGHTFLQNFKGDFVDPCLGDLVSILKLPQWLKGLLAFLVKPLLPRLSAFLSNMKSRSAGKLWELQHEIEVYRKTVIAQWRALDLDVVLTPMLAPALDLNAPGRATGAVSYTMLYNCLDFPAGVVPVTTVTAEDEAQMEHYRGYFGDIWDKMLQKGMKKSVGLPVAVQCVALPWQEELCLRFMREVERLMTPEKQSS
protocol_notes: Inhibition of human recombinant FAAH assessed as conversion of [3H]AEA to [3H]ethanolamine at 1 mM after 10 mins by liquid scintillation counting
Active and inactive are the calls of the source. The rule behind the calls is not given here.

[
  {
    "compound_string": "CCCCCCCCOc1nsc2ccccc12",
    "inhibition": "43%"
  },
  {
    "compound_string": "c1ccc(-c2ccc(COc3nsc4ccccc34)cc2)cc1",
    "inhibition": "50%"
  },
  {
    "compound_string": "CCCCCCCCN1Cc2ccccc2C1=O",
    "inhibition": "inactive"
  },
  {
    "compound_string": "CCCCCCCCN1C(=O)c2ccccc2C1=O",
    "inhibition": "inactive"
  }
]

----------
measured_on: Monoglyceride lipase (Homo sapiens)
protocol_notes: Inhibition of human recombinant MAGL assessed as [3H]oleoylglycerol hydrolysis after 10 mins by liquid scintillation counting
reported_property: IC50 (µM)

Example cases with answers are listed next.
[
  {
    "molecule": "O=c1c2ccccc2sn1Cc1ccc(-c2ccccc2)cc1",
    "numeric_value": 0.41
  },
  {
    "molecule": "CCCCCCCCn1sccc1=O [OCTHILINONE]",
    "numeric_value": 1.09
  }
]

1: CCCCCCCCOc1noc2ccccc12
2: CCCCCCCCn1oc2ccccc2c1=O
3: CCCCCCCCn1sc2ccccc2c1=O
Ask | Would you mind ranking these molecules by ascending IC50? Your task in answering is to list the labels in the requested order.
Reply | 3, 1, 2

----------
measured_on: Monoglyceride lipase (Homo sapiens, UniProt Q99685)
Sequence (Q99685 whole entry): as the sequence (Q99685 whole entry) above
protocol_notes: Inhibition of human recombinant MAGL assessed as inhibition of 2-oleoylglycerol hydrolysis preincubated for 10 mins by LC/MS analysis
Catalogue of molecules with associated IC50
Response body: numeric value in nM, unit text excluded.

[
  {
    "compound_string": "CCCCCCCCn1sccc1=O",
    "unit_tag": "nM",
    "IC50": 140
  }
]

Shifting focus to the molecule that follows.
Measured IC50, CCCCCCCCn1sc2ccccc2c1=O : 660
